test system: NCI-H522 lung; experiment: NCI tumour cell line growth inhibition, 48 h
Measured TGI of individual entries

                                   molecule  assay_result
0  C1OCN2c3nonc3N3COCN4c5nonc5N1C2C43 (stereo unspecified)      > 100 µM
1  CC1=C(C(=O)Nc2ccccc2C)C(c2ccc(N(C)C)cc2)C(C(=O)Nc2ccccc2C)=C(C)N1      > 100 µM
2  O=C([C@H](O)[C@@H](O)c1ccc(Br)cc1)C12CC3CC(CC(C3)C1)C2     > 57.7 µM
3  CCOC(=O)c1c(-c2[nH]c(C(=O)OCc3ccccc3)c(C)c2C(=O)OCC)[nH]c(C(=O)OCc2ccccc2)c1C      > 100 µM

NCI-H522 lung data for `COc1ccc(/C=C/c2nc(N3CCOCC3)c3cc(F)c(F)cc3n2)cc1OC` ; its TGI: > 100 µM

NCI-H522 lung data for `CN(N)C(=O)NCCCl` ; its TGI: > 100 µM

----------
test system: M14 melanoma; assay: NCI tumour cell line growth inhibition, 48 h
Measured TGI of individual entries

>>> print(df.to_string())
                                   compound  assay_result
0      COC(=O)c1[nH]nc(-c2ccccc2)c1N1CCCCC1      > 100 µM
1  CC(NC(=O)C(C)C(=O)NCc1ccc(C(F)(F)F)cc1)C(N)=O (stereo not given)      > 100 µM
2            CC1=CC(=O)c2cccc(NC3=NCCO3)c21      > 100 µM
3  COc1ccc(S(=O)(=O)O)cc1NS(=O)(=O)c1ccc(C)cc1      > 100 µM

Now consider a different compound.
M14 melanoma data for COc1ccc(N2C(=O)C3c4[nH]c5ccccc5c4C4CCC(C(C)C)CC4C3C2=O)cc1 (stereo not given) ; its TGI: > 100 µM

----------
system: HS 578T breast; test: NCI tumour cell line growth inhibition, 48 h
Measured TGI of individual entries

compound	TGI
N#CSCC1COc2ccccc2O1 (configuration not stated)	> 10 µM
c1ccc(-c2n(Cc3ccc4ccccc4n3)c3ccccc3[n+]2Cc2ccc3ccccc3n2)cc1	2.28 µM
COC(=O)C[C@H](COCc1ccccc1)NC(=O)C[C@H](COCc1ccccc1)NC(=O)C[C@H](COCc1ccccc1)NC(=O)OC(C)(C)C	> 100 µM
CC(C)[C@@H](C(=O)O[C@@H]1/C=C/C(=O)O[C@@H](C)CCC/C=C/[C@@H]2C[C@H](O)C[C@H]21)[N+](C)(C)C	> 100 µM
Cc1ccc(S(=O)(=O)n2cc(-c3cnc(N)c(Br)n3)c3ccccc32)cc1	2.97 µM
COC(=O)C1=C(OC(=O)/C(=C/c2ccc(Cl)cc2)c2ccccc2)C(C(=O)OC)[C@@]2(O)[C@@H](C(=O)OC)[C@H](C)C[C@@H]1[C@@H]2C(=O)OC (some centres not stated)	> 100 µM

HS 578T breast data for COC(=O)c1ccc(C)cc1C1CN=NC12Cc1cc(C)c(C)cc1C2=O (configuration not stated) ; its TGI: > 100 µM

HS 578T breast data for `CC(=O)O[C@H]1CC[C@@]2(C)C(=CC[C@@H]3[C@@H]2CC[C@]2(C)c4nc(N)c(C#N)cc4C[C@@H]32)C1` ; its TGI: > 95.2 µM

HS 578T breast data for `Cc1ccc(O)c(Cc2nc3ccccc3nc2-c2cccc(Br)c2)c1` ; its TGI: 66.8 µM

HS 578T breast data for `CCOC(=O)Nc1nc2c(F)c(F)c(F)cc2s1` ; its TGI: > 100 µM

HS 578T breast data for O=C1c2ccccc2C2(c3ccc(Cl)cc3)NCc3ccccc3CN12 (configuration not stated) ; its TGI: 56.7 µM

HS 578T breast data for `COc1ccc(OC)c(CNc2ccc(O)c(C(=O)NCCc3ccc(F)cc3)c2)c1` ; its TGI: > 100 µM

----------
Measured TGI of individual entries
system: HOP-92 NSCLC; assay: NCI tumour cell line growth inhibition, 48 h

Previously resolved entries follow.
>>> print(df.to_string())
                                   compound  recorded_endpoint  assay_result
0   Cc1ccccc1NC(=S)N/N=C(/c1ccccc1)c1ccccn1                TGI       13.2 µM
1           COc1ccc2oc(-c3ccncc3)cc(=O)c2c1                TGI      > 100 µM
2           O=C(NCCO)c1c(O)c2ccccc2[nH]c1=O                TGI      > 100 µM
3                   NNC(=O)CC(=O)Nc1ccccc1F                TGI      > 100 µM
4  O=S(=O)(NC(=S)Nc1ccccc1)c1ccc(N2N=C3c4ccccc4CC3C2c2ccc(Cl)cc2)cc1 (configuration not stated)                TGI       40.2 µM

HOP-92 NSCLC data for COc1cc2c(cc1OCCCCCCNC(=O)c1cc3ccccc3[nH]1)N=CC1CCCN1C2=O (configuration not stated) ; its TGI: > 100 µM

HOP-92 NSCLC data for CC1(C)CCc2cc3c(cc2O1)OC(C)(C)C1c2c(ccc4c2CCC(C)(C)O4)OC31 (configuration not stated) ; its TGI: > 100 µM

----------
Measured TGI of individual entries
tested on: UACC-257 melanoma; assay: NCI tumour cell line growth inhibition, 48 h
Unit µM implied. Number only.

                         line_notation    measured_target  recorded_endpoint  assay_result
0  ClCc1c(-c2ccccc2)nn(-c2ccccc2)c1CCl  UACC-257 melanoma                TGI          34.1

Now consider a different compound.
UACC-257 melanoma data for `Cn1c2ccccc2c2cc(-c3ccccc3)c3c(c21)C(=O)C=CC3=O` ; its TGI: 50.9

----------
tested on: NCI-H460 lung; assay: NCI tumour cell line growth inhibition, 48 h
Threshold check on TGI: at or above 10 µM gives True, strictly below gives False.

Before answering, review these 3 worked examples.
compound	classification
C[C@H](CC[C@@H](O)C(C)(C)O)[C@H]1CC[C@@]2(C)[C@@H]3CC=C4[C@@H](CC[C@H](OC5OC(CO)C(O)C(O)C5O)C4(C)C)[C@]3(C)C(=O)C[C@]12C (some centres not stated)	True
COc1ccc(C2C(C(=O)O)=C(COC(C)=O)Oc3cc4c(cc32)OCO4)cc1 (configuration not stated)	True
COC(=O)C1(NC(=O)C(N)CC(=O)O)C(C)C1C (configuration not stated)	True

Hi team, for `Oc1c(I)cc(I)cc1CNCCCN(Cc1ccccn1)Cc1ccccn1` , is the recorded TGI at or above 10 µM?
False

Hi team, for Cc1cc2nc3n(c2cc1C)C(c1c(F)cccc1F)SC3 (configuration not stated) , is the recorded TGI at or above 10 µM?
True

----------
Measured TGI of individual entries
system: PC-3 prostate; test: NCI tumour cell line growth inhibition, 48 h

Previously resolved entries follow.
In [3]: df
Out[3]:
                                   compound  assay_result
0  C1OCN2c3nonc3N3COCN4c5nonc5N1C2C43 (configuration not stated)      > 100 µM
1  CC12C=CC(C)(O1)C1C2c2ccccc2S1(=O)=O (configuration not stated)      > 100 µM
2  O=C1CC(c2ccccc2)Cc2nc3ccc(Cl)cc3cc21 (configuration not stated)      > 100 µM
3  CC(=O)NNC(=O)c1nn(-c2ccc(Cl)cc2)cc1OC(C)=O       > 25 µM
4      COC(=O)Nc1nc2c(OC)c(OC)c(OC)cc2[nH]1      > 100 µM

Entry `c1ccc([C@H]2CN3CCSC3=N2)cc1` ; TGI = > 100 µM

Entry `O=C([C@H](O)[C@@H](O)c1ccc(Br)cc1)C12CC3CC(CC(C3)C1)C2` ; TGI = 24.5 µM

----------
test system: OVCAR-5 ovarian; experiment: NCI tumour cell line growth inhibition, 48 h
Measured GI50 of individual entries

                                   molecule  recorded_endpoint  assay_result
0  O=C1Nc2ccccc2C12CC(c1ccccc1)=NN2 (centres undefined)               GI50       16.4 µM
1  COc1cc2c(cc1OCCCCCCNC(=O)c1cc3ccccc3[nH]1)N=CC1CCCN1C2=O (centres undefined)               GI50      > 100 µM
2  COc1cc(C(=O)/C=C/c2c(-c3ccc(F)cc3)nc3sccn23)cc(OC)c1OC               GI50       1.85 µM

Entry `COC(=O)[C@]12CC[C@@H](C)[C@H](C)[C@@H]1C1=CC[C@@H]3[C@@]4(C)C(c5ncon5)=C[C@@](C)(CO)C4=CC[C@@]3(C)[C@]1(C)CC2` ; GI50 = 5.2 µM
